Test system: gshA^− DHB4 E. coli
Assay: Inhibition of bacterial growth (MIC), gshA^− DHB4 E. coli
Conditions: E. coli strains wt, gshA^−, gor^−
Measured Attribute: sensitivity of gshA^− / gor^− strains compared with wild type

# Molecule, Endpoint Result
records = [
    ("O=c1c2ccccc2[se]n1CCCCCCn1[se]c2ccccc2c1=O [EbSe 16]", "same sensitivity"),
    ("O=c1c2ccccc2[se]n1CCn1[se]c2ccccc2c1=O [EbSe 14]", "same sensitivity"),
    ("O=c1c2ccccc2[se]n1-c1ccccc1[N+](=O)[O-] [EbSe 12]", "same sensitivity"),
]

----------
Target: E. coli TrxR (Escherichia coli, UniProt P0A9P4)
Sequence (P0A9P4 whole entry): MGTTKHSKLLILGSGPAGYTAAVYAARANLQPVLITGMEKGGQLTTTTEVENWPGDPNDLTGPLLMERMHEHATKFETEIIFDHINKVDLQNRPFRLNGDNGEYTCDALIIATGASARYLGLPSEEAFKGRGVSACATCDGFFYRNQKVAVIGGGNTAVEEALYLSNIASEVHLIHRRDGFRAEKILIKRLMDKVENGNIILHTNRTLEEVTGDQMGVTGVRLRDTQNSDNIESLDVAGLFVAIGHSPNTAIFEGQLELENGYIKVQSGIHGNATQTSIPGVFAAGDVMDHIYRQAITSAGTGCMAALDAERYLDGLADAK
Assay: E. coli TrxR inhibition, thioredoxin dependent DTNB reduction assay
Type: biochemical
Conditions: Dixon plot; 6 nM TrxR, Trx 1, 2 or 4 μM; read-out: Ki for E. coli TrxR
Measured Attribute: log10 of Ki (log10 of the value in µM)

# Compound Structure, log10 of Ki
records = [
    ("CCOC(=O)c1cccnc1[Se]Nc1ccc(Cl)cc1", 0.88),
    ("O=c1c2cccnc2[se]n1-c1ccc(Cl)cc1", -0.30),
    ("O=c1c2ccccc2[se]n1-c1ccccc1[N+](=O)[O-]", -0.60),
    ("O=c1c2ccccc2[se]n1-c1ccc(Cl)cc1", -0.26),
    ("O=C(O)c1ccccc1-n1[se]c2ccccc2c1=O", 0.08),
    ("O=c1[nH][se]c2ccccc12", 0.00),
    ("O=c1c2ccccc2[se]n1-c1ccncc1", 0.18),
    ("NCCn1[se]c2ccccc2c1=O", -1.46),
    ("Cc1cc(Cl)ccc1-n1[se]c2ccccc2c1=O", -0.60),
    ("O=c1c2ccccc2[se]n1CCn1[se]c2ccccc2c1=O", -1.30),
    ("O=c1c2ccccc2[se]n1-c1ccccc1", -0.52),
    ("CCOC(=O)c1cccnc1[Se]Nc1ccc(Cl)cn1", 0.88),
    ("O=c1c2ccccc2[se]n1CCCCCCn1[se]c2ccccc2c1=O", -1.60),
]

----------
Molecular target: E. coli TrxR (Escherichia coli, UniProt P0A9P4)
Assay: E. coli TrxR inhibition, thioredoxin dependent DTNB reduction assay
Assay type: biochemical
Details: for the selenium released stock; read-out: Ki for E. coli TrxR, selenium released stock
Measured Attribute: Ki (nM)

# Compound Structure, Result Unit, Endpoint Result
measured = [
    ("O=c1c2ccccc2[se]n1CCCCCCn1[se]c2ccccc2c1=O", "nM", 10),
]

----------
Experiment: Glutathione peroxidase (GPx) activity of the compounds
Format: biochemical
Details: relative; EbSe 6 = 1

# Compound, Relative GPx activity
records = [
    ("O=C(O)c1ccccc1-n1[se]c2ccccc2c1=O [EbSe 9]", 2.1),
    ("O=c1[nH][se]c2ccccc12 [EbSe 2]", 0.97),
    ("O=c1c2ccccc2[se]n1-c1ccc(Cl)cc1 [EbSe 7]", 0.64),
    ("Cn1[se]c2ccccc2c1=O [EbSe 3]", 1.2),
    ("O=c1c2ccccc2[se]n1-c1ccccc1[N+](=O)[O-] [EbSe 12]", 0.93),
    ("O=c1c2ccccc2[se]n1-c1ccc(Cl)cc1 [EbSe 11]", 0.87),
    ("O=C(O)c1ccc(-n2[se]c3ccccc3c2=O)cc1 [EbSe 10]", 1.8),
    ("Cc1cc(Cl)ccc1-n1[se]c2ccccc2c1=O [EbSe 8]", 0.67),
    ("O=c1c2ccccc2[se]n1-c1ccccc1 [EbSe 6, 2-phenyl-1,2-benzisoselenazol-3(2H)-one]", 1),
    ("O=c1c2ccccc2[se]n1-c1ccncc1 [EbSe 13]", 1.4),
    ("CC(C)(C)n1[se]c2ccccc2c1=O [EbSe 4]", 1.1),
]
